Reference for the values: ChEMBL document CHEMBL1212768

Tested on: Acinetobacter baumannii
Test: Antibacterial activity against multidrug-resistant Acinetobacter baumannii BM4665 by antimicrobial susceptibility assay
Format: functional
Would you kindly list MIC for each of these compounds?
Numbers only, in µg/mL.

Examples with their reported MIC follow.
INSERT INTO assay_data (test_smiles, assay_endpoint, data_value) VALUES
  ('NCC[C@H](O)C(=O)N[C@@H]1C[C@H](N)[C@@H](O[C@H]2O[C@H](CN)[C@@H](O)[C@H](O)[C@H]2O)[C@H](O)[C@H]1O[C@H]1O[C@H](CO)[C@@H](O)[C@H](N)[C@H]1O', 'MIC', 64),
  ('CCn1cc(C(=O)O)c(=O)c2cc(F)c(N3CCNCC3)cc21', 'MIC', 12);

--- query ---
Record CN(C)c1ccc(O)c2c1C[C@H]1C[C@H]3[C@H](N(C)C)C(O)=C(C(N)=O)C(=O)[C@@]3(O)C(O)=C1C2=O . Reported MIC: 0.125

----------
System: Acinetobacter baumannii
Assay: Antibacterial activity against multidrug-resistant Acinetobacter baumannii BM4675 by antimicrobial susceptibility assay
Type: functional
assay endpoint: log10 MIC (log10 of the value in µg/mL)
In our notation, the value equals log10 of MIC in µg/mL.

Examples with their reported log10 MIC follow.
INSERT INTO measurements (compound, data_value) VALUES
  ('C[C@H]1[C@H](NC(=O)/C(=N\OC(C)(C)C(=O)O)c2csc(N)n2)C(=O)N1S(=O)(=O)O [AZTREONAM]', 1.51),
  ('CN(C)c1cc(NC(=O)CNC(C)(C)C)c(O)c2c1C[C@H]1C[C@H]3[C@H](N(C)C)C(O)=C(C(N)=O)C(=O)[C@@]3(O)C(O)=C1C2=O [TIGECYCLINE]', 0.18),
  ('CN(C)c1ccc(O)c2c1C[C@H]1C[C@H]3[C@H](N(C)C)C(O)=C(C(N)=O)C(=O)[C@@]3(O)C(O)=C1C2=O [MINOCYCLINE]', 0.90),
  ('NC[C@H]1O[C@H](O[C@H]2[C@H](O)[C@@H](O[C@H]3O[C@H](CO)[C@@H](O)[C@H](N)[C@H]3O)[C@H](N)C[C@@H]2N)[C@H](N)C[C@@H]1O [TOBRAMYCIN]', 1.08),
  ('C[C@@H](O)[C@H]1C(=O)N2C(C(=O)O)=C(SCCNC=N)C[C@H]12 [IMIPENEM ANHYDROUS]', 0.30);

--- query ---
Record CO/N=C(\C(=O)N[C@@H]1C(=O)N2C(C(=O)[O-])=C(C[N+]3(C)CCCC3)CS[C@H]12)c1csc(N)n1 [CEFEPIME] . Reported log10 MIC: 0.90

----------
Tested on: Acinetobacter baumannii
Assay: Antibacterial activity against Acinetobacter baumannii CIP70-10 by antimicrobial susceptibility assay
Type: functional
Would you kindly list MIC for each of these compounds?
One number for each entry, in µg/mL.

Examples with their reported MIC follow.
INSERT INTO assay_data (compound, assay_endpoint, data_value) VALUES
  ('CO[C@H]1/C=C/O[C@@]2(C)Oc3c(C)c(O)c4c(O)c(c(/C=N/N5CCN(C)CC5)c(O)c4c3C2=O)NC(=O)/C(C)=C\C=C\[C@H](C)[C@H](O)[C@@H](C)[C@@H](O)[C@@H](C)[C@H](OC(C)=O)[C@@H]1C [RIFAMPIN]', 'MIC', 4),
  ('O=C(O)c1cn(C2CC2)c2cc(N3CCNCC3)c(F)cc2c1=O [CIPROFLOXACIN]', 'MIC', 0.125),
  ('NCC[C@H](O)C(=O)N[C@@H]1C[C@H](N)[C@@H](O[C@H]2O[C@H](CN)[C@@H](O)[C@H](O)[C@H]2O)[C@H](O)[C@H]1O[C@H]1O[C@H](CO)[C@@H](O)[C@H](N)[C@H]1O [AMIKACIN]', 'MIC', 6),
  ('C[C@H]1[C@H](NC(=O)/C(=N\OC(C)(C)C(=O)O)c2csc(N)n2)C(=O)N1S(=O)(=O)O [AZTREONAM]', 'MIC', 48),
  ('CN(C)c1cc(NC(=O)CNC(C)(C)C)c(O)c2c1C[C@H]1C[C@H]3[C@H](N(C)C)C(O)=C(C(N)=O)C(=O)[C@@]3(O)C(O)=C1C2=O [TIGECYCLINE]', 'MIC', 0.125),
  ('CN(C)c1ccc(O)c2c1C[C@H]1C[C@H]3[C@H](N(C)C)C(O)=C(C(N)=O)C(=O)[C@@]3(O)C(O)=C1C2=O [MINOCYCLINE]', 'MIC', 0.047),
  ('CC1(C)S[C@@H]2[C@H](NC(=O)[C@H](C(=O)O)c3ccsc3)C(=O)N2[C@H]1C(=O)O [TICARCILLIN]', 'MIC', 24),
  ('C[C@@H](O)[C@H]1C(=O)N2C(C(=O)O)=C(SCCNC=N)C[C@H]12 [IMIPENEM ANHYDROUS]', 'MIC', 0.25);

Lab note: each compound below needs its MIC filled in.
1. CCN[C@@H]1C[C@H](N)[C@@H](O[C@H]2OC(CN)=CC[C@H]2N)[C@H](O)[C@H]1O[C@H]1OC[C@](C)(O)[C@H](NC)[C@H]1O [NETILMICIN]
2. NC[C@H]1O[C@H](O[C@H]2[C@H](O)[C@@H](O[C@H]3O[C@H](CO)[C@@H](O)[C@H](N)[C@H]3O)[C@H](N)C[C@@H]2N)[C@H](N)C[C@@H]1O [TOBRAMYCIN]
3. CC(C)(O/N=C(\C(=O)N[C@@H]1C(=O)N2C(C(=O)[O-])=C(C[n+]3ccccc3)CS[C@H]12)c1csc(N)n1)C(=O)O [CEFTAZIDIME]

Found:
1: 2; 2: 2; 3: 6

----------
Tested on: Acinetobacter baumannii
Assay: Antibacterial activity against multidrug-resistant Acinetobacter baumannii BM4665 by antimicrobial susceptibility assay
Format: functional
True if MIC is below 3 µg/mL. False if not; exact matches included in False.

Solved entries (count: 5):
INSERT INTO assay_data (compound, class_label) VALUES
  ('CC1(C)S[C@@H]2[C@H](NC(=O)[C@H](C(=O)O)c3ccsc3)C(=O)N2[C@H]1C(=O)O', 'True'),
  ('CO[C@H]1/C=C/O[C@@]2(C)Oc3c(C)c(O)c4c(O)c(c(/C=N/N5CCN(C)CC5)c(O)c4c3C2=O)NC(=O)/C(C)=C\C=C\[C@H](C)[C@H](O)[C@@H](C)[C@@H](O)[C@@H](C)[C@H](OC(C)=O)[C@@H]1C', 'True'),
  ('CO/N=C(\C(=O)N[C@@H]1C(=O)N2C(C(=O)O)=C(COC(C)=O)CS[C@H]12)c1csc(N)n1', 'False'),
  ('CCN[C@@H]1C[C@H](N)[C@@H](O[C@H]2OC(CN)=CC[C@H]2N)[C@H](O)[C@H]1O[C@H]1OC[C@](C)(O)[C@H](NC)[C@H]1O', 'False'),
  ('NC[C@H]1O[C@H](O[C@H]2[C@H](O)[C@@H](O[C@H]3O[C@H](CO)[C@@H](O)[C@H](N)[C@H]3O)[C@H](N)C[C@@H]2N)[C@H](N)C[C@@H]1O', 'False');

Lookup: Please state whether MIC is below 3 µg/mL for C[C@@H](O)[C@H]1C(=O)N2C(C(=O)O)=C(SCCNC=N)C[C@H]12 [IMIPENEM ANHYDROUS]
Found: True

Lookup: Please state whether MIC is below 3 µg/mL for CO/N=C(\C(=O)N[C@@H]1C(=O)N2C(C(=O)[O-])=C(C[N+]3(C)CCCC3)CS[C@H]12)c1csc(N)n1 [CEFEPIME]
Found: False

Lookup: Please state whether MIC is below 3 µg/mL for CN(C)c1cc(NC(=O)CNC(C)(C)C)c(O)c2c1C[C@H]1C[C@H]3[C@H](N(C)C)C(O)=C(C(N)=O)C(=O)[C@@]3(O)C(O)=C1C2=O
Found: True

Lookup: Please state whether MIC is below 3 µg/mL for O=C(N[C@H](CO)[C@H](O)c1ccc([N+](=O)[O-])cc1)C(Cl)Cl
Found: False

Lookup: Please state whether MIC is below 3 µg/mL for O=C(O)c1cn(C2CC2)c2cc(N3CCNCC3)c(F)cc2c1=O
Found: True

Lookup: Please state whether MIC is below 3 µg/mL for C[C@H]1[C@H](NC(=O)/C(=N\OC(C)(C)C(=O)O)c2csc(N)n2)C(=O)N1S(=O)(=O)O
Found: False

----------
Would you kindly list MIC for each of these molecules?
Test system: Acinetobacter baumannii
Assay: Antibacterial activity against multidrug-resistant Acinetobacter baumannii BM4666 by antimicrobial susceptibility assay
Type: functional
Numbers only, in µg/mL.

INSERT INTO assay_data (molecule, assayed_target, assay_endpoint, data_value) VALUES
  ('CCN[C@@H]1C[C@H](N)[C@@H](O[C@H]2OC(CN)=CC[C@H]2N)[C@H](O)[C@H]1O[C@H]1OC[C@](C)(O)[C@H](NC)[C@H]1O', 'Acinetobacter baumannii', 'MIC', 1.5),
  ('C[C@@H](O)[C@H]1C(=O)N2C(C(=O)O)=C(SCCNC=N)C[C@H]12 [IMIPENEM ANHYDROUS]', 'Acinetobacter baumannii', 'MIC', 0.19),
  ('O=C(O)c1cn(C2CC2)c2cc(N3CCNCC3)c(F)cc2c1=O', 'Acinetobacter baumannii', 'MIC', 0.38);

--- query ---
Record CN(C)c1ccc(O)c2c1C[C@H]1C[C@H]3[C@H](N(C)C)C(O)=C(C(N)=O)C(=O)[C@@]3(O)C(O)=C1C2=O . Reported MIC: 0.19
